The reported measurements were obtained from patent US20110312945A1.

Reported ED50 by item:
Test system: DK-PGD2-induced systemic eosinophilia
TEST_METHOD_NOTES: DK-PGD2-Induced Systemic Eosinophilia in Rats
Assay type: in vivo
EXPERIMENTAL_CONDITIONS: Rattus norvegicus, Eosinophil; female Sprague-Dawley rats, oral dosing 30 min before intracardiac 10 μg DK-PGD2, blood eosinophils at 60 min
Method: DK-PGD2-Induced Systemic Eosinophilia in Rats. Female Sprague-Dawley rats (175-250 g) were dosed orally with test compound (or vehicle). Thirty minutes after dosing, animals were anaesthetized with isoflurane. Following induction of anaesthesia, animals received an intracardiac injection of 10 μg DK-PGD2 in 0.3 ml heparinized (10 U/ml) saline. […] Blood eosinophil numbers were determined from the total leukocyte count and the percentage eosinophils.

The examples below pair each entry with its known result.
substance_smiles=Cc1c(Cc2ccc(S(=O)(=O)N3CCCC3)cc2)c2c(n1CC(=O)O)CCCCC2 reported_result="< 1 mg/kg"
substance_smiles=Cc1c(Cc2ccc(S(=O)(=O)N3CCOCC3)cc2)c2c(n1CC(=O)O)CCC(C)(C)C2 reported_result="< 1 mg/kg"
substance_smiles=Cc1c(Cc2ccc(S(=O)(=O)NC3CCCCC3)cc2)c2c(n1CC(=O)O)CCCC2 reported_result="1 to 10 mg/kg"
substance_smiles=Cc1c(Cc2ccccc2S(=O)(=O)N2CCOCC2)c2c(n1CC(=O)O)CCC(C)(C)C2 reported_result="< 1 mg/kg"
substance_smiles=Cc1c(Cc2ccc(S(=O)(=O)N3CCCC3)cc2)c2c(n1CC(=O)O)CCC(C)(C)C2 reported_result="< 1 mg/kg"

**Query** For the compound shown here, Cc1c(Cc2ccccc2S(=O)(=O)N2CCOCC2)c2c(n1CC(=O)O)CC(C)(C)CC2=O , give the reported ED50.
**Result** < 1 mg/kg

**Query** For the compound shown here, Cc1c(Cc2ccccc2S(=O)(=O)N2CCCC2)c2c(n1CC(=O)O)CCCCC2 , give the reported ED50.
**Result** < 1 mg/kg
